- PROTOCOL_SUMMARY: In vivo pharmacokinetic profile in rat after IV injection (ELISA)
- TEST_SETTINGS: male, Sprague Dawley, in vivo; rat, intravenous; SST 0.02 mg/kg, SST fusion protein 27.1 mg/kg; read-out: CL, Mean
MEASUREMENT_LABEL: clearance (mL/min/kg)
# output: bare number, implied unit mL/min/kg

Let me know recorded clearance for C[C@H](N)C(=O)NCC(=O)N[C@H]1CSSC[C@@H](C(=O)O)NC(=O)[C@H](CO)NC(=O)[C@H]([C@@H](C)O)NC(=O)[C@H](Cc2ccccc2)NC(=O)[C@H]([C@@H](C)O)NC(=O)[C@H](CCCCN)NC(=O)[C@H](Cc2c[nH]c3ccccc23)NC(=O)[C@H](Cc2ccccc2)NC(=O)[C@H](Cc2ccccc2)NC(=O)[C@H](CC(N)=O)NC(=O)[C@H](CCCCN)NC1=O [Free SST] , thanks.
510

Reference for the values: patent US20170002057A1
